# System: IL-6 levels in human whole blood stimulated with a TLR2 agonist
# assayNotes: IRAK4 Whole Blood Assay (lipoteichoic acid/TLR2-stimulated IL-6)
# Assay type: cell-based
# measurementConditions: Homo sapiens, lipoteichoic acid 10 μg/mL, IL-6 readout
reportedMetric: pEC50
Interpret pEC50 as the negative base-10 log of the concentration measured in mol/L.

**Query** Provide value of pEC50 for this record tested with IL-6 levels in human whole blood stimulated with a TLR2 agonist: CC(C)Nc1cc(-c2cnc3cc(C#N)cnn23)ncc1C(=O)NCCC(C)(C)O [Example 186]
**Result** 6.60

**Query** Another: CC(C)(O)[C@H](F)CNC(=O)c1cnc(-c2cnc3cc(C#N)cnn23)cc1Nc1cnn(C2CC(F)(F)C2)c1 [Example 259]
**Result** 6.89

**Query** Another: COC(C)(C)[C@H]1CC[C@H](NC(=O)c2cnc(-c3cnc4cc(Cl)cnn34)cc2NC2COC2)CC1 [Example 191]
**Result** 6.20

**Query** Another: CC(C)(F)Cn1cc(Nc2cc(-c3cnc4cc(C#N)cnn34)ncc2C(=O)NC[C@@H](F)C(C)(C)O)cn1 [Example 279]
**Result** 6.11

**Query** Another: CCn1cc(Nc2cc(-c3cnc4cc(C#N)cnn34)ncc2C(=O)NC[C@@H](F)C(C)(C)O)cn1 [Example 267]
**Result** 6.89

**Query** Another: CC(C)(O)[C@H](F)CNC(=O)c1cnc(-c2cnn3cc(C#N)cnc23)cc1NC1CCC1 [Example 96]
**Result** 6.57

**Query** Another: CC(C)(O)[C@H](F)CNC(=O)c1cnc(-c2cnn3cc(Cl)cnc23)cc1NC1CCCC1 [Example 67]
**Result** 5.51

**Query** Another: CC(C)(O)CCNC(=O)c1cnc(-c2cnn3cc(Cl)cnc23)cc1NC1COC1 [Example 47]
**Result** 6.46

**Query** Another: CCNc1cc(-c2cnn3cc(Cl)cnc23)ncc1C(=O)NC[C@@H](F)C(C)(C)O [Example 56]
**Result** 6.44

**Query** Another: CC(C)(O)[C@H](F)CNC(=O)c1cnc(-c2cnn3cc(Cl)cnc23)cc1Nc1ccc(C(N)=O)cc1 [Example 33]
**Result** 6.46

**Query** Another: CC(C)Nc1cc(-c2ccn(-c3ccncc3)n2)ncc1C(=O)NC[C@@H](F)C(C)(C)O [Example 156]
**Result** 5.63

**Query** Another: CC(C)Nc1cc(-c2cnc3cc(C#N)cnn23)ncc1C(=O)NC[C@@H](F)C(C)(C)O [Example 145]
**Result** 6.62

**Query** Another: CC[C@@H](C)Nc1cc(-c2cnn3cc(Cl)cnc23)ncc1C(=O)NC[C@@H](F)C(C)(C)O [Example 70]
**Result** 6.08

**Query** Another: CC1(Nc2cc(-c3cnc4cc(Cl)cnn34)ncc2C(=O)NC[C@H](F)C(C)(C)O)CC1 [Example 198]
**Result** 6.33

**Query** Another: Cn1cc(Nc2cc(-c3cnn4cc(Cl)cnc34)ncc2C(=O)NCCC(C)(C)O)cn1 [Example 255]
**Result** 6.14

**Query** Another: CC(C)(F)Cn1cc(Nc2cc(-c3cnc4cc(C#N)cnn34)ncc2C(=O)NC[C@@H](F)C(C)(C)F)cn1 [Example 282]
**Result** 6.15

**Query** Another: CC(C)(O)[C@H](F)CNC(=O)c1cnc(-c2cnc3cc(Cl)cnn23)cc1NC1CCOCC1 [Example 143]
**Result** 5.97

**Query** Another: CC(C)(F)[C@H](F)CNC(=O)c1cnc(-c2cnc3cc(Cl)cnn23)cc1Nc1cnn(CC(F)F)c1 [Example 263]
**Result** 6.52

**Query** Another: CC(=O)N[C@H]1CC[C@H](NC(=O)c2cnc(-c3cnc4cc(Cl)cnn34)cc2NC(C)C)CC1 [Example 219]
**Result** 6.35

**Query** Another: CC(C)Nc1cc(-c2cnn3cc(Cl)cnc23)ncc1C(=O)N[C@H]1CC[C@H](NC(=O)[C@H](C)O)CC1 [Example 49]
**Result** 5.53
